# Measurement Notes: in vivo pharmacokinetics in mice (plasma, LC/MS-MS)
# Measurement Setup: read-out: Cmax [μmol/L]; oral dose 50.0 mg/kg, 0.5% aqueous HEC, parent in plasma
# Description: Plasma exposure of prodrug 6e and parent compound 1b was determined following a single oral administration at 10 mg/kg and 3 mg/kg doses in 0.5% aqueous HEC (FIG. 5b). […] Compound concentrations were quantitated in plasma samples by LC/MS-MS using an Agilent triple quadrupole instrument. […] Sample concentrations were determined by comparison to calibration standards prepared in blank plasma and assayed using the same conditions. […]
Measurement Label: Cmax (µmol/L)
Lab book: enter the figure in µmol/L, no units written.

Just so you know, measured Cmax for `CNCCOC(=O)OCOc1c(-c2ccc(C(F)(F)F)cc2)c(C)nc2cc(OC)c(Cl)cc12.Cl` came out at 12

====

# Tested on: P. berghei-GFP parasites
# Measurement Notes: in vivo efficacy, modified Thompson test
# Design: species or system mice
# Measurement Setup: 10 mg/kg PO, three daily doses days 3-5 PI, 0.5% aqueous HEC
Measurement Label: Suppression [%] day 6 PI (%)
Lab book: enter the figure in %, no units written.

Example compounds with recorded Suppression [%] day 6 PI:
1) CNCCOC(=O)OCOc1c(-c2ccccc2C)c(C)nc2cc(OC)c(Cl)cc12.Cl	71
2) COc1cc2[nH]c(C)c(-c3ccccc3C)c(=O)c2cc1Cl [1c, reference compound]	29

# ---- query compound ----
Just so you know, measured Suppression [%] day 6 PI for `CNCCCOC(=O)OCOc1c(-c2ccc(C(F)(F)F)cc2)c(C)nc2cc(OC)c(Cl)cc12.Cl` came out at 82

====

# Measurement Notes: in vivo pharmacokinetics in mice (plasma, LC/MS-MS)
# Measurement Setup: mouse, in vivo, po, 50 mg/kg
Entries and their measured Cmax follow.
Lab book: enter the figure in µM, no units written.

1. CNCCCOC(=O)OCOc1c(-c2ccc(C(F)(F)F)cc2)c(C)nc2cc(OC)c(Cl)cc12.Cl [6d]	21.2

# ---- query compound ----
Just so you know, measured Cmax for COc1cc2[nH]c(C)c(-c3ccc(C(F)(F)F)cc3)c(=O)c2cc1Cl [1d, reference compound] came out at 0.36

====

# System: P. berghei-GFP parasites
# Measurement Notes: in vivo efficacy, modified Thompson test
# Parameters: species or system mice
# Measurement Setup: 10 mg/kg PO, three daily doses days 3-5 PI, 0.5% aqueous HEC; untreated 13
Entries and their measured Day of death (avg) follow.
Just the number, please, no unit attached.

Example molecules with recorded Day of death (avg):
1) COc1cc2[nH]c(C)c(-c3ccccc3C)c(=O)c2cc1Cl [1c, reference compound]	13
2) CNCCCOC(=O)OCOc1c(-c2ccccc2C)c(C)nc2cc(OC)c(Cl)cc12.Cl	13
3) CNCCOC(=O)OCOc1c(-c2ccc(C(F)(F)F)cc2)c(C)nc2cc(OC)c(Cl)cc12.Cl	13
4) CCN(CC)Cc1cc(Nc2ccnc3cc(Cl)ccc23)ccc1O [ADQ, reference compound]	21
5) COc1cc2[nH]c(C)c(-c3ccc(C(F)(F)F)cc3)c(=O)c2cc1Cl [1d, reference compound]	14
6) CNCCCOC(=O)OCOc1c(-c2ccc(C(F)(F)F)cc2)c(C)nc2cc(OC)c(Cl)cc12.Cl	13

# ---- query molecule ----
Just so you know, measured Day of death (avg) for `CNCCOC(=O)OCOc1c(-c2ccccc2C)c(C)nc2cc(OC)c(Cl)cc12.Cl` came out at 16

Data origin, for the record: patent US20190031613A1
